Study target: Recombinant human LTC4 synthase (Homo sapiens, UniProt Q16873)
Construct: made in house; host or cells: Pichia pastoris ('Piccia pastoralis' [sic])
Protocol: LTC4 synthase assay (conversion of LTA4 methyl ester to LTC4 methyl ester, HPLC)
Type: biochemical
Stated conditions: inhibitor concentration 10 μM; read-out: Percantage Inhibition at 10 μM (unless specified otherwise)
Reported endpoint: inhibition at 10 µM (%)
Expressed in %, but write only the number.

compound_structure=O=C(c1ccc(NS(=O)(=O)c2ccc([N+](=O)[O-])cc2)c(C(=O)O)c1)c1ccc(NS(=O)(=O)c2ccc([N+](=O)[O-])cc2)c(C(=O)O)c1 measurement_unit=% reported_measurement=100
compound_structure=O=C(c1ccc(NS(=O)(=O)c2ccc(Cl)cc2)cc1)c1ccc(NC(=O)c2cccc(C(F)(F)F)c2F)c(C(=O)O)c1 measurement_unit=% reported_measurement=99

Now look at this entry.
Inquiry: So what does the record say about inhibition at 10 µM for CN(c1ccc(Cl)cc1)c1ccc(C(=O)c2ccc(Nc3ccc(C(F)(F)F)cc3)c(-c3nnn[nH]3)c2)cc1 ?
Reply text: 71

###

// reported inhibition at 10 µM for each item listed
Study target: Recombinant human LTC4 synthase (Homo sapiens)
Construct: made in house; host or cells: Pichia pastoris ('Piccia pastoralis' [sic])
Sequence (Q16873 1-150): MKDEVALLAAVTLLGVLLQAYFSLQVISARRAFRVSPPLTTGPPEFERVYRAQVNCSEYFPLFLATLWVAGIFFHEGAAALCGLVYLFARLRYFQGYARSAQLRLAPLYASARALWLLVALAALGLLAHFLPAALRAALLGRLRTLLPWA
Protocol: LTC4 synthase assay (conversion of LTA4 methyl ester to LTC4 methyl ester, HPLC)
Format: biochemical
Stated conditions: inhibitor concentration 10 μM; read-out: Percantage Inhibition at 10 μM (unless specified otherwise)
Expressed in %, but write only the number.

Consider the worked cases shown below.
compound_structure=O=C(Nc1ccc(C(=O)c2ccc(Nc3ccc(F)c(F)c3)c(C(=O)O)c2)cc1)Nc1cccc(Cl)c1 reported_measurement=95
compound_structure=O=C(Nc1ccc(C(=O)c2ccc(NC(=O)c3cccc4ccsc34)c(C(=O)O)c2)cc1)c1cccc(Cl)c1 reported_measurement=100
compound_structure=O=C(Nc1ccc(C(=O)c2ccc(NC(=O)c3ccc(Cl)cc3Cl)c(C(=O)O)c2)cc1C(=O)O)c1ccc(OC(F)(F)F)cc1 reported_measurement=100
compound_structure=O=C(c1ccc(NC(=O)c2cc(Cl)ccc2O)cc1)c1ccc(Nc2ccc(F)c(F)c2)c(C(=O)O)c1 reported_measurement=78

Inquiry: Lab request: please report inhibition at 10 µM under test system Recombinant human LTC4 synthase (Homo sapiens) for CC(C)Oc1ccc(C(=O)Nc2ccc(C(=O)c3ccc(Nc4ccc(F)c(F)c4)c(C(=O)O)c3)cc2)cc1
Reply text: 68

Inquiry: // next record O=C(Nc1ccc(C(=O)c2ccc(Nc3ccc(F)c(F)c3)c(C(=O)O)c2)cc1)c1cccc(Cl)c1
Reply text: 87

Inquiry: // next record CN(c1ccc(Cl)cc1)c1ccc(C(=O)c2ccc(NC(=O)c3cccc(Cl)c3Cl)c(-c3nnn[nH]3)c2)cc1
Reply text: 77

###

Study target: Recombinant human LTC4 synthase (Homo sapiens, UniProt Q16873)
Construct: made in house; host or cells: Pichia pastoris ('Piccia pastoralis' [sic])
Protocol: LTC4 synthase assay (conversion of LTA4 methyl ester to LTC4 methyl ester, HPLC)
Format: biochemical
Stated conditions: inhibitor concentration 10 μM; read-out: Percantage Inhibition at 10 μM (unless specified otherwise)
Procedure: In the assay LTC4 synthase catalyses the reaction where the substrate LTA4 methyl ester is converted to LTC4 methyl ester. […] The mobile phase consists of acetonitrile/MeOH/H2O (32.5/30/37.5) with 1% acetic acid pH adjusted with NH3 to pH 5.6, and absorbance measured at 280 nm with a Waters 2487 UV-detector. The following is added chronologically to each well: • 1. […] 80 μl of the incubation mixture is analysed with HPLC.
// reported inhibition at 10 µM for each item listed
Expressed in %, but write only the number.

molecule=O=C(Nc1ccc(C(=O)c2ccc(Oc3ccc(F)c(F)c3)c(C(=O)O)c2)cc1)c1cccc(Cl)c1 reported_measurement=88

Inquiry: Lab request: please report inhibition at 10 µM under test system Recombinant human LTC4 synthase (Homo sapiens, UniProt Q16873) for O=C(c1ccc(Nc2ccc(F)c(F)c2)cc1)c1ccc(Oc2ccc(F)c(F)c2)c(C(=O)O)c1
Reply text: 97

Inquiry: // next record O=C(Nc1ccc(C(=O)c2ccc(NC(=O)c3cccc(Cl)c3)c(C(=O)O)c2)cc1)c1cccc(Cl)c1
Reply text: 97

###

Study target: Recombinant human LTC4 synthase (Homo sapiens, UniProt Q16873)
Construct: made in house; host or cells: Pichia pastoris ('Piccia pastoralis' [sic])
Protocol: LTC4 synthase assay (conversion of LTA4 methyl ester to LTC4 methyl ester, HPLC)
Format: biochemical
Stated conditions: inhibitor concentration 10 μM; read-out: Percantage Inhibition at 10 μM (unless specified otherwise)
Reported endpoint: inhibition at 10 µM
Field: value (include unit after the number)

Consider the worked cases shown below.
compound_structure=O=C(Nc1ccc(C(=O)c2ccc(NC(=O)c3cccc(Cl)c3O)c(C(=O)O)c2)cc1)c1cccc(Cl)c1 reported_endpoint="inhibition at 10 µM" reported_measurement=82%
compound_structure=CN(c1ccc(Cl)cc1)c1ccc(C(=O)c2ccc(Nc3ccccc3C(F)(F)F)c(C(=O)O)c2)cc1 reported_endpoint="inhibition at 10 µM" reported_measurement=55%
compound_structure=O=C(Nc1ccc(C(F)(F)F)cc1)Nc1ccc(C(=O)c2ccc(NC(=O)Nc3ccc(C(F)(F)F)cc3)c(C(=O)O)c2)cc1C(=O)O reported_endpoint="inhibition at 10 µM" reported_measurement=95%
compound_structure=COc1cc(Cl)ccc1Oc1ccc(C(=O)c2ccc(N(C)c3ccc(Cl)cc3)cc2)cc1C(=O)O reported_endpoint="inhibition at 10 µM" reported_measurement=98%
compound_structure=CN(c1ccc(Cl)cc1)c1ccc(C(=O)c2ccc(Nc3ccc(C(F)(F)F)cc3)c(C(=O)O)c2)cc1 reported_endpoint="inhibition at 10 µM" reported_measurement=86%
compound_structure=O=C(c1ccc(NC(=O)c2cc(Cl)ccc2Cl)cc1)c1ccc(Nc2ccc(F)c(F)c2)c(C(=O)O)c1 reported_endpoint="inhibition at 10 µM" reported_measurement=98%
compound_structure=CN(c1ccc(Cl)cc1)c1ccc(C(=O)c2ccc(Oc3cccc(C(F)(F)F)c3F)c(C(=O)O)c2)cc1 reported_endpoint="inhibition at 10 µM" reported_measurement=96%
compound_structure=O=C(c1ccc(Nc2ccc(F)c(F)c2)cc1)c1ccc(Nc2ccc(F)c(F)c2)c(C(=O)O)c1 reported_endpoint="inhibition at 10 µM" reported_measurement=84%

Inquiry: So what does the record say about inhibition at 10 µM for CCCCOc1ccc(S(=O)(=O)Nc2ccc(C(=O)c3ccc(N(C)c4ccc(F)c(F)c4)c(C(=O)O)c3)cc2)cc1 ?
Reply text: 99%

Inquiry: // next record O=C(Nc1ccc(C(=O)c2ccc(NC(=O)c3ccc(C(F)(F)F)cc3F)c(C(=O)O)c2)cc1C(=O)O)c1ccc(C(F)(F)F)cc1
Reply text: 100%

Inquiry: // next record CCCCc1ccc(C(=O)Nc2ccc(C(=O)c3ccc(NC(=O)c4ccc(CCCC)cc4)c(C(=O)O)c3)cc2C(=O)O)cc1
Reply text: 98%

Inquiry: // next record CCCCOc1ccc(S(=O)(=O)Nc2ccc(C(=O)c3ccc(Nc4ccc(F)c(F)c4)c(C(=O)O)c3)cc2)cc1
Reply text: 100%

Inquiry: // next record CCCCCCC(=O)Nc1ccc(C(=O)c2ccc(NC(=O)c3ccc(Cl)cc3Cl)c(C(=O)O)c2)cc1
Reply text: 100%

Inquiry: // next record CN(c1ccc(Cl)cc1)c1ccc(C(=O)c2ccc(Oc3cccc(Cl)c3)c(C(=O)O)c2)cc1
Reply text: 96%

Inquiry: // next record O=C(Nc1ccc(C(=O)c2ccc(NC(=O)c3cccc(F)c3F)c(C(=O)O)c2)cc1)c1cccc(Cl)c1
Reply text: 100%

###

Study target: Recombinant human LTC4 synthase (Homo sapiens)
Construct: made in house; host or cells: Pichia pastoris ('Piccia pastoralis' [sic])
Protocol: LTC4 synthase assay (conversion of LTA4 methyl ester to LTC4 methyl ester, HPLC)
Format: biochemical
Stated conditions: inhibitor concentration 10 μM; read-out: Percantage Inhibition at 10 μM (unless specified otherwise)
// reported inhibition at 10 µM for each item listed
Expressed in %, but write only the number.

Consider the worked cases shown below.
compound_structure=O=C(c1ccc(NC(=O)c2ccc(Cl)cc2Cl)c(C(=O)O)c1)c1ccc(NC(=O)c2ccc(Cl)cc2Cl)c(C(=O)O)c1 measurement_unit=% reported_measurement=82
compound_structure=CN(c1ccc(Cl)cc1)c1ccc(C(=O)c2ccc(Oc3ccc(Cl)cc3)c(C(=O)O)c2)cc1 measurement_unit=% reported_measurement=62
compound_structure=CN(c1ccc(Cl)cc1)c1ccc(C(=O)c2ccc(Oc3cccc(Cl)c3F)c(C(=O)O)c2)cc1 measurement_unit=% reported_measurement=83
compound_structure=O=C(c1ccc(Nc2cccc(Cl)c2)cc1)c1ccc(Oc2ccc(F)c(F)c2)c(C(=O)O)c1 measurement_unit=% reported_measurement=98
compound_structure=CN(c1ccc(Cl)cc1)c1ccc(C(=O)c2ccc(Nc3cccc(C(F)(F)F)c3)c(C(=O)O)c2)cc1 measurement_unit=% reported_measurement=90

Inquiry: So what does the record say about inhibition at 10 µM for O=C(c1ccc(Nc2ccc(Cl)cc2)cc1)c1ccc(Oc2ccc(F)c(F)c2)c(C(=O)O)c1 ?
Reply text: 100

Inquiry: // next record CN(c1ccc(Cl)cc1)c1ccc(C(=O)c2ccc(Oc3cccc(Cl)c3)c(-c3nnn[nH]3)c2)cc1
Reply text: 84

Inquiry: // next record CCCCOc1ccc(S(=O)(=O)Nc2ccc(C(=O)c3ccc(NC(=O)c4cccc(Cl)c4Cl)c(C(=O)O)c3)cc2C(=O)O)cc1
Reply text: 98
